Here the recorded SPOT intensity is given for each entry.
Target: T1, Myo5, Q04439
T1 sequence (Q04439 1072-1160, looked up): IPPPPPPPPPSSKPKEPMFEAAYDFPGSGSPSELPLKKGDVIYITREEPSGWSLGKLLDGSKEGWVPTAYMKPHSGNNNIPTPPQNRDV
Assay: SPOT array
Conditions: median of control spots 471
Value Type: SPOT intensity

1) QRKSLRRPTLSKPAV: 3
2) SAPDIPPRSPNRNAH: 0
3) KTKQQKPAIPQKKSF: 1
4) VPPPMQPPPIESSNL: 167
5) ALRRRLPVTRSKINW: 0
6) RKRAPTPPAPSRSEK: 0
